Procedure Summary: chemical genetic growth profiling, strain panel (AID 1159580);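 also: tested at 20 µM; growth read once vehicle control cultures reached saturation at 30 °C; 1 = growth at the plate median or of vehicle wells; lower values mean less growth of the strain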
Setup Conditions: S. cerevisiae deletion strains, growth OD, locus YGL086W, strain mad1, stronger effect = lower value
Hit rate of the full screen: of about 5,500 compounds, about 2,000 (36%) were called active. Inconclusive results (about 18%) are left out. Some of the results follow.
Give measured normalized growth for each item. Keep answers brief.
Numbers only.

Example cases with answers are listed next.
O=C(O[C@@H]1Cc2c(O)cc(O)cc2O[C@@H]1c1cc(O)c(=O)c2c(O)c(O)cc([C@H]3Oc4cc(O)cc(O)c4C[C@H]3OC(=O)c3cc(O)c(O)c(O)c3)c2c1)c1cc(O)c(O)c(O)c1	0.893
CCCCCCCCCCCC1=C(O)C(=O)C=C(O)C1=O	0.798
CCCCCc1c2c(cc(O)c1C(=O)O)OC(=O)c1c(cc(OC)cc1C(=O)CCCC)O2	1
COc1c2ccoc2cc2oc(=O)ccc12	0.719
NC(=NCCC[C@H](N)C(=O)O)N[N+](=O)[O-]	0.982

For each of the compounds below, note its normalized growth.
1. O=C(O)C1=C[C@@H](O)[C@@H](O)[C@H](O)C1
2. O=C(O[C@@H]1Cc2c(O)cc(O)cc2O[C@@H]1c1cc(O)c(=O)c2c(O)c(O)cc([C@H]3Oc4cc(O)cc(O)c4C[C@H]3O)c2c1)c1cc(O)c(O)c(O)c1
3. COc1cc(OC)c2ccc(=O)oc2c1
4. COc1cc2occc2c2oc(=O)ccc12

1.07
0.669
1
0.964

###

Procedure Summary: chemical genetic growth profiling, strain panel (AID 1159580);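 also: tested at 20 µM; growth read once vehicle control cultures reached saturation at 30 °C; 1 = growth at the plate median or of vehicle wells; lower values mean less growth of the strain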
Setup Conditions: S. cerevisiae deletion strains, growth OD, locus YGR252W, strain gcn5
Among all 5,500 compounds or so, about 2,000 (36%) were called active. Roughly 18% stayed inconclusive and do not appear here. Rule as the data show it: active = normalized growth mostly below about 0.91 (no sharp cut-off); inconclusive = no clear call, values can overlap the other calls; inactive = mostly above about 0.92. Some of the results follow.
Form entry, call: pick from active, inactive

CC(C)c1c(O)c(-c2cc3c(c(C(C)C)c2O)CCC2C(C)(C)CCC[C@]32C)cc2c1CCC1C(C)(C)CCC[C@]21C (stereo partly drawn)	inactive

What call does the record list for CC1(C)C(=O)C=C[C@@]2(C)C1C=C[C@]1(C)C2CC[C@@]2(C)[C@H](c3ccoc3)OC(=O)C3OC321 (stereo partly drawn) ?
inactive

Input CC(C)c1c(O)ccc2c1CCC1C(C)(C)CCC[C@]21C (stereo partly drawn)
active

Queued: CC1(C)C(=O)C=C[C@@]2(C)C1CC(=O)[C@]1(C)C2CC[C@@]2(C)[C@H](c3ccoc3)OC(=O)[C@H]3O[C@]321 (stereo partly drawn)
inactive

CC(=O)O[C@@H]1CC2C(C)(C)C(=O)C=C[C@]2(C)C2CC[C@@]3(C)[C@H](c4ccoc4)OC(=O)[C@H]4O[C@]43[C@@]21C (stereo partly drawn) ?
inactive

Entry CC1=CC(=O)C2=C(C)CC[C@@H]3[C@H](OC(=O)[C@H]3C)[C@@H]12 please
inactive

What would you report for CC(=O)OCC1=C(C(=O)O)N2C(=O)[C@@H](NC(=O)Cc3cccs3)[C@H]2SC1 ?
inactive

How about this compound: CC(=O)OC1CN2CCC1CC2 (stereo not drawn)
inactive

###

Procedure Summary: chemical genetic growth profiling, strain panel (AID 1159580);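 also: tested at 20 µM; growth read once vehicle control cultures reached saturation at 30 °C; 1 = growth at the plate median or of vehicle wells; lower values mean less growth of the strain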
Setup Conditions: S. cerevisiae deletion strains, growth OD, locus YML124C, strain tub3, stronger effect = lower value
The campaign covered roughly 5,500 compounds. About 2,000 (36%) were called active. Inconclusive results (about 18%) are left out. Some of the results follow.
Hi there, I'd appreciate the recorded normalized growth for every entry that follows.
One number for each entry.

Examples from the recorded data:
COc1ccc(-c2cc(=O)c3c(O)cc(O[C@@H]4O[C@H](CO[C@H]5O[C@H](C)[C@@H](O)[C@H](O)[C@@H]5O)[C@@H](O)[C@H](O)[C@H]4O)cc3o2)cc1O	1
CC[n+]1c(-c2ccccc2)c2cc(N)ccc2c2ccc(N)cc21	0.932
O=c1c(O)c(-c2ccc(O)c(O)c2)oc2cc(O)cc(O)c12	1.03
COc1ccc(-c2oc3cc(O[C@H]4O[C@H](CO)[C@@H](O)[C@H](O)[C@H]4O)c(OC)c(O)c3c(=O)c2OC)cc1O	0.981
CCc1cc(C(N)=S)ccn1	0.987
C[C@@H]1O[C@@H](OC[C@H]2OC(Oc3c(-c4ccc(O)c(O)c4)oc4cc(O)cc(O)c4c3=O)[C@H](O)[C@@H](O)[C@@H]2O)[C@H](O)[C@H](O)[C@H]1O (stereo partly drawn)	0.993
CCCCCc1c2c(cc(O)c1C(=O)O)OC(=O)c1c(cc(OC)cc1C(=O)CCCC)O2	0.995

Query molecule follows.
Sample COc1c2ccoc2cc2oc(=O)ccc12 — what was its normalized growth?
0.872
